assayed system: Prothrombin (Bos taurus)
assay procedure: thrombin protease inhibitors – biochemical, fluorescence polarization, uHTS hits, dose response (AID 602369)
Type: functional
The source made the active and inactive calls.
Return exactly one item of 1 (active), -1 (inactive)

Before answering, review these 3 worked examples.
> print(dat)
                                test.smiles  category.label
1             CCCc1c(C)nc2ccc(C(=O)O)cc2c1S               1
2  CS(=O)(=O)C1=NSC2=NC(=O)/C(=C\c3cccn3-c3ccccc3Cl)C(=N)N21               1
3  Cc1cccc(OCc2nnc(SCc3nc(O)c4ccc(C(F)(F)F)cc4n3)o2)c1               1

### Prompt Which outcome did this test record for the molecule O=C(N/N=C/c1ccccc1F)c1cc2c(ccc3ccccc32)o1 ?
### Response 1

### Prompt Which outcome did this test record for the molecule COC(=O)c1[nH]c2ccc(C)cc2c1NC(=O)CN1CCCc2ccccc21 ?
### Response -1

* * *

assayed system: Cytochrome P450 2C19 (Homo sapiens, UniProt P33261)
Sequence (P33261 whole entry): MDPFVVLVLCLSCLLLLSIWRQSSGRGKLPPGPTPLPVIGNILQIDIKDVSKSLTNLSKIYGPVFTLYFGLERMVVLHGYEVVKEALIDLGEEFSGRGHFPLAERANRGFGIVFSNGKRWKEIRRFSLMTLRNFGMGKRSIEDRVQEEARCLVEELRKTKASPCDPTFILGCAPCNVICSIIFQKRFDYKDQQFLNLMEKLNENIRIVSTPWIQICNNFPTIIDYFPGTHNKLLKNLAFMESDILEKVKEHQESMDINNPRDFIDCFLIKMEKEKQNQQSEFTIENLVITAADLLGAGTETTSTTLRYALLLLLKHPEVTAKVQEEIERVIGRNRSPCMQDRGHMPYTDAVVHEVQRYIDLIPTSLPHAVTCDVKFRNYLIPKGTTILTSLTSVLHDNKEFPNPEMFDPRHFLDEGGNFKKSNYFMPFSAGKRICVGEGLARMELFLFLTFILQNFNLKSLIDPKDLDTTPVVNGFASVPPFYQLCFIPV
assay procedure: Cytochrome panel assay with activity outcomes. Panel member name: p450-cyp2c19 Compounds with AC50 equal or less than 10 uM are considered active
Type: functional
applied conditions: read-out: AC50
measured quantity: AC50

### Prompt Entry COc1ccc(C(=O)Nc2ccc(F)cc2F)cc1OC has what AC50?
### Response 39.8 µM (inconclusive)

### Prompt Entry Cc1ccc(NC(=O)C2CCN(S(=O)(=O)c3c(C)n[nH]c3C)CC2)nc1 has what AC50?
### Response 39.8 µM (inconclusive)

### Prompt Entry CC(OC(=O)Cn1c(C(F)(F)F)nc2ccccc21)C(N)=O (stereo not drawn) has what AC50?
### Response 28.2 µM (inconclusive)

* * *

assayed system: Zinc finger protein mex-5 (Caenorhabditis elegans, UniProt Q9XUB2)
Sequence (Q9XUB2 whole entry): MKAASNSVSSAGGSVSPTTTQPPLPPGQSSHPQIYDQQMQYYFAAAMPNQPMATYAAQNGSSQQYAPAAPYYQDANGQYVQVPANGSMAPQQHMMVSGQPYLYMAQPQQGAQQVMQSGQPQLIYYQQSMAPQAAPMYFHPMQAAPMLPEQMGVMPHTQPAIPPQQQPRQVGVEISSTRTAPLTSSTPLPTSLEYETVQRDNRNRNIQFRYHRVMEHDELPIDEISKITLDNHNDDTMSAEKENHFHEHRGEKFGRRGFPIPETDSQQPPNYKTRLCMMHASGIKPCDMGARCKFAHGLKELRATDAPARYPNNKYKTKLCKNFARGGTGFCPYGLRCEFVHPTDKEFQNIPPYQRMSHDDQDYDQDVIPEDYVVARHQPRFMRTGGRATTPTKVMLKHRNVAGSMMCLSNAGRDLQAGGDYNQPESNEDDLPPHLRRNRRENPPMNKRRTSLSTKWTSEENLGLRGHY
assay procedure: potency of MEX-5 RNA-binding blockers – biochemical, C. elegans, fluorescence polarization, dose response (AID 1960)
Calls of active or inactive are those of the source.
measured quantity: EC50

> print(dat)
                                   compound  measured.quantity          value.measured
1  O=C1c2cccc3c(N4CCCCC4)ccc(c23)C(=O)N1CCO               EC50         114 µM (active)
2  O=C1NC(=O)N(c2ccc(Cl)cc2)C(=O)/C1=C/NCCN1CCCCC1               EC50   > 300 µM (not active)
3      Cc1ccc2oc(=O)c(/C=C(\O)c3cccs3)nc2c1               EC50  6.82 µM (inconclusive)
4  Cc1c(Cl)cccc1N=C(S)N1CCN(C(=O)C2CCCO2)CC1 (stereo not given)               EC50   > 300 µM (not active)

Let us examine a further case.
### Prompt Entry O=C(c1ccc(Br)o1)N1CCN=C1SCc1cccc(F)c1 has what EC50?
### Response > 300 µM (not active)

* * *

assay procedure: blockers of CRF-binding protein–CRF-R2 complex – cell-based, uHTS hits, 384-well, dose response (AID 651639)
Type: functional, Homo sapiens
applied conditions: read-out: IC50_Mean
Activity calls are given as the source filed them.
Return exactly one item of active, inactive

Before answering, review these 3 worked examples.
> print(dat)
                                test.smiles  category.label
1  O=C(Oc1c(Br)cc([N+](=O)[O-])cc1Br)c1cccnc1        inactive
2  Cc1ccccc1Cn1ccc(NC(=O)c2cc3ncc(Br)cn3n2)n1          active
3  Cn1c(COc2ccccc2)nnc1SCC(=O)c1cccc([N+](=O)[O-])c1          active

### Prompt Which outcome did this test record for the compound N#Cc1ccc(CN(Nc2ccccc2)c2ccccc2)cc1 ?
### Response active

### Prompt Which outcome did this test record for the compound Cc1ccc2cccc(Oc3ncnc4scc(-c5ccccc5)c34)c2n1 ?
### Response active

### Prompt Which outcome did this test record for the compound COc1ccc(C(=O)COC(=O)c2cccnc2SC)cc1 ?
### Response active

The reported numbers originate from ChEMBL document CHEMBL1201862.
